- System: Uromyces appendiculatus
- METHOD: In vivo preventive test on Uromyces appendiculatus (bean rust)
- COND: 500 ppm, preventive spray, bean plants, grading 11 days after contamination
RECORDED METRIC: Eff. % (%)
Answers are plain numbers, in %.

See these solved cases before continuing.
{"COMPOUND": "Cc1nn(C)c(C)c1C(=S)Nc1cccc2c1C(C)CC2CC(C)C (stereo not shown)", "Eff. % [%]": 100}
{"COMPOUND": "CC1CC(C)c2c(NC(=O)c3cn(C)nc3C(F)F)cccc21 (stereo not shown) [Example 7]", "Eff. % [%]": 100}
{"COMPOUND": "CC1CCc2cccc(NC(=O)c3cn(C)nc3C(F)F)c21 (stereo not shown)", "Eff. % [%]": 100}
{"COMPOUND": "Cc1nn(C)c(F)c1C(=O)Nc1cccc2c1CCC21CC1", "Eff. % [%]": 100}

Would you mind giving Eff. % for every compound in the list below?
1. CC(C)CC1CCc2c(NC(=O)c3cn(C)nc3C(F)F)cccc21 (stereo not shown)
2. Cc1nn(C)c(C)c1C(=O)Nc1cccc2c1C(C)CC21CC1 (stereo not shown)
3. CC1CC2(CC2(Cl)Cl)c2cccc(NC(=O)c3cn(C)nc3C(F)F)c21 (stereo not shown) [Example 3]
4. Cn1cc(C(=O)Nc2cccc3c2CCC3C(C)(C)C)c(C(F)F)n1 (stereo not shown)
5. Cn1cc(C(=O)Nc2cccc3c2CCC32CC2(Cl)Cl)c(C(F)F)n1 (stereo not shown)
6. CC(C)C1CCc2c(NC(=O)c3cn(C)nc3C(F)F)cccc21 (stereo not shown)

Result:
100
100
100
100
100
100

For each of the items listed, what is its Eff. %?
1. CC1CC(C(C)C)c2cccc(NC(=O)c3cn(C)nc3C(F)F)c21 (stereo not shown) [Example 6]
2. Cc1nn(C)c(C)c1C(=S)Nc1cccc2c1C(C)CC21CC1 (stereo not shown)
3. CCCON=C1CC(C)c2c(NC(=O)c3cn(C)nc3C(F)F)cccc21 (stereo not shown)
4. CCON=C1CC(C)c2c(NC(=O)c3c(C)nn(C)c3F)cccc21 (stereo not shown)

Result:
1. 100
2. 100
3. 90
4. 80

Hello, I would appreciate it if you could give Eff. % for each entry below.
1. CC1CC2(CC2)c2cccc(NC(=S)c3cn(C)nc3C(F)(F)F)c21 (stereo not shown)
2. Cn1cc(C(=O)Nc2cccc3c2CCC32CC2)c(C(F)F)n1
3. CCON=C1CC(C)c2c(NC(=O)c3cn(C)nc3C(F)F)cccc21 (stereo not shown)
4. CC1CC(CC(C)(C)C)c2cccc(NC(=S)c3cn(C)nc3C(F)F)c21 (stereo not shown)

Result:
100
100
97
100

Query: Which Eff. % reading was recorded for the compound CON=C1CC(C)c2c(NC(=O)c3cn(C)nc3C(F)F)cccc21 (stereo not shown) ?
Result: 99
